From: the supplement of paper PMC11780869

Tested on: Bacillus subtilis
Test: cleaved RNA product abundance (RNA/gDNA barcode ratio) relative to median wild-type variant (ratio to wild type); higher = more accumulation of the downstream cleavage product
Conditions: experiment (reporter, strain, medium): exp 8a: truncated aprE reporter, strain BJT201 with 2% xylose (RNase J1 expressed); cleavage site: glnRA (positions -5 to +31 mutated)
Cut-off 0.5 on cleaved RNA product abundance, inclusive. At or above means YES; below means NO.

CGACATGTCCCGCTTCTTTCATTAATTCGTTAGCAACTGTTTTGCTATATAAATTTACCTTTTAAGAGGAGGAAT | YES
CGACATGTCCCGCTTCTTTCATTAATCCGTCCGCAACTGTTTTGCTATATACATTTACCTTTTAAGAGGAGGAAT | NO
CGACATGTCCCGCTTCTTTCATTAATCCGTTAGCAACCGTTTTGCTTTATACATTTACCTTTTAAGAGGAGGAAT | NO
CGACATGTCCCGCTTCTTTCATTAATCCGTTAGCAACTGTTGTGCTATATATATTTACCTTTTAAGAGGAGGAAT | YES
CGACATGTCCCGCTTCTTTCATTAATCCTTTAGCAACTGTTTTGCTATATACATTAACCTTTTAAGAGGAGGAAT | YES
